target under test: T1, CD47(19-136)-hFc (human, biotin-labelled in the Octet assay of Example 8 (sites not given))
T1 construct: tied by name; also called CD47-hFc; CD47-hFc-Biotin
T1 sequence (chain, as listed by the source limits assumed): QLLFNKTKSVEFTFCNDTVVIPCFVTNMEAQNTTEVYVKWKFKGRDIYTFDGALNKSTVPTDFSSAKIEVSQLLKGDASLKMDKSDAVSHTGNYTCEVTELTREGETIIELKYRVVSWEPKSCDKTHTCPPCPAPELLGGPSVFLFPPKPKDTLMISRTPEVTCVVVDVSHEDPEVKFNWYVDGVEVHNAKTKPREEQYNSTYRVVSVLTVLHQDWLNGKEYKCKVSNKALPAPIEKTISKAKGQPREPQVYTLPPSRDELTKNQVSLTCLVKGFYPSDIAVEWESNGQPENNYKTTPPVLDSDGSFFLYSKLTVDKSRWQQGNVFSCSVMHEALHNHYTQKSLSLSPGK
run description: BLI (Fortebio Octet RED96), biotinylated CD47-hFc on SA sensor, antibody in solution
property name: kon (M⁻¹ s⁻¹)
Expressed in M⁻¹ s⁻¹, but write only the number.

Past entries and their recorded results:
- Hu58A-14-PE (antibody, IgG4, V domains shown, also called humanized anti-CD47 antibody Hu58A-14-PE) VH: EVQLLESGGGLVQPGGSLRLSCAASGFIFSRFGMAWVRQTPDKRLEWVATISSGGSYTYYPDSVKGRLTISRDNAKTTLYLQMRSLKSEDTAMYYCARQGLLDYLYALDYWGQGTAVTVSS VL: DIQMTQSPSSVSASIGDRVTITCKASQDINSFLAWFQQKPGKSPRPLIYRAYRLVDGVPSRFSGVGSGQDYSLTISSLDYEDLGIYYCQQYVEFPPTFGAGTMLELK: 1.78e+06
- Hu34-39-PE (antibody, IgG4, V domains shown, also called humanized anti-CD47 antibody Hu34-39-PE) VH: QVQLQESGPGLVKPSQTLSLTCKASGYTFTNYWITWVKQRPGQGLEWIGDITPGRGETNYNQKFKGRVTLTVDISASTAYMELSSLRSEDTAVYYCSRWGLRRGDYWGQGTSVTVSS VL: EIVLTQSPGTLSLSPGERATLSCRASSSVSSSYLNWYQQKSGASPKLWIYSTSNLASGVPGRFSGSGSGTSYSLTISSVEAEDAATYYCQQYSGYPLTFGAGTKLEVK: 6.69e+06
- AB6.12-IgG4P (antibody, V domains shown, Anti-CD47 control antibody from WO2013/119714; also called AB06.12-4P; AB06.12-P) VH: QMQLVQSGAEVKKTGSSVKVSCKASGFNIKDYYLHWVRQAPGQALEWMGWIDPDQGDTEYAQKFQDRVTITRDRSMSTAYMELSSLRSEDTAMYYCNAAYGSSSYPMDYWGQGTTVTVSS VL: NIQMTQSPSAMSASVGDRVTITCKASQDIHRYLSWFQQKPGKVPKHLIYRANRLVSGVPSRFSGSGSGTEFTLTISSLQPEDFATYYCLQYDEFPYTFGGGTKVEIKR: 4.8e+06

Let us examine a further case.
The value of kon measured for the binder Hu26T-31-PE (antibody, IgG4, V domains shown, also called humanized anti-CD47 antibody Hu26T-31-PE) VH: QVQLVQSGAEVKKPGASVKVSCKASGYTFTDYYMNWVRQAPGQGLEWIGRIYPGSGLTYYNAKFKGRATVTADKSTSTVYMELSSLRSEDTAVYYCARTSYGSSFPHVWGQGTTVTVSS VL: DIQMTQSPSSLSASVGDRVTITCKSSQSLLNVNDQKNYLAWYQQKPGKAPKLLIYFASTRESGVPSRFSGSGSGTDFTLTISSLQPEDFATYYCQQHYSTPLTFGQGTKLEIK turned out to be 1.04e+06
